Assay: In vitro metabolic stability, liver microsome incubation (human)
Type: in vitro ADME
Details: 1 mg/mL liver microsome protein, 37° C.
Procedure: The in vitro metabolic stability of the compounds disclosed herein was determined through incubation of liver microsomes of various species. A proper amount of test compound was added into a liver microsome reaction system (1 mg/mL liver microsome protein, 25 U/mL glucose-6 phosphate dehydrogenase, 1 mM NADP, 6 mM D-glucose 6-phosphate and 5 mM MgCl2), and then the mixture was incubated in a water bath kettle at 37° C. to start the reaction. […]
# Lookup of reported T1/2 in human liver microsome min keyed by entry
Quick note: give the figure in min, leave out the unit.

Look over these answered cases.
COc1ccc(CN(Cc2ccc(OC)cc2)S(=O)(=O)c2cc(NC(=O)Cc3ccccc3Cl)cc3c2cnn3Cc2ccc(C#N)cc2)cc1 [Compound 91A]: 100.96
CC(C)Cn1ncc2c(S(N)(=O)=O)cc(NC(=O)Cc3ccccc3Cl)cc21 [Compound 7-B]: 32.48
CCCn1ncc2c(S(N)(=O)=O)cc(NC(=O)Cc3ccccc3Cl)cc21 [Compound 5-B]: 65.64

Read the next record carefully.
Q) Recorded T1/2 in human liver microsome min for CC(C)CCn1ncc2c(S(N)(=O)=O)cc(NC(=O)Cc3ccccc3Cl)cc21 [Compound 8-B] , please?
A) 26.93

---

# Lookup of reported IC50 keyed by entry
target: UniProtKB Q99571; experiment: FLIPR assay of intracellular calcium increase induced by activation of hP2X4 expressed in HEK293 cells (agonist BZ-ATP 2.5 μM); type: cell-based; settings: HEK293 cells stably expressing hP2X4, FLIPR, class symbols, read-out: P2X4 IC50
Sequence (Q99571 1-404 isoform Q99571-2): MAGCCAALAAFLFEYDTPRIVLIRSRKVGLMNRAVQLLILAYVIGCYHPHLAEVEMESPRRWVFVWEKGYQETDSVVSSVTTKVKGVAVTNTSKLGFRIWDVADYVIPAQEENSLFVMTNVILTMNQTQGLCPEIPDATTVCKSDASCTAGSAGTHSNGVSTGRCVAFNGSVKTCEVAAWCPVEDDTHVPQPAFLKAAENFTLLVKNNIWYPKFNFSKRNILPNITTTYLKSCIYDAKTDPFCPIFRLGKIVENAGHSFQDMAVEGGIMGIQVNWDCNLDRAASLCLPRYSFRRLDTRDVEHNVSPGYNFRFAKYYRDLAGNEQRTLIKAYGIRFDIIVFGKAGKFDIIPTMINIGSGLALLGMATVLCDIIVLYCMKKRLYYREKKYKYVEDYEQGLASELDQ

CCn1ncc2c(S(N)(=O)=O)cc(NC(=O)Cc3ccccc3Cl)cc21: ≤ 10 nM

Q) Recorded IC50 for NS(=O)(=O)c1cc(NC(=O)Cc2ccccc2Cl)cc2cnn(C(F)F)c12 , please?
A) 50 to 200 nM

Q) And what about the molecule NS(=O)(=O)c1cc(NC(=O)CC2CCCCC2O)cc2nn(C(F)F)cc12 (centres unmarked) ?
A) 200 to 5000 nM

Q) And what about the molecule Nc1ccc(Cn2ncc3c(S(N)(=O)=O)cc(NC(=O)Cc4ccccc4Cl)cc32)cc1 [Compound 95A] ?
A) ≤ 10 nM

Q) And what about the molecule CC(C)C1(n2cc3c(S(N)(=O)=O)cc(NC(=O)Cc4ccccc4Cl)cc3n2)CC1 ?
A) 10 to 50 nM

Q) And what about the molecule Cc1ccccc1CC(=O)Nc1cc([S@](C)(=N)=O)c2cn(Cc3ccc(F)cc3)nc2c1 [Compound 139A] ?
A) 200 to 5000 nM

Q) And what about the molecule COc1ccccc1CC(=O)Nc1cc(S(C)(=N)=O)c2cn(Cc3ccc(F)cc3)nc2c1 (centres unmarked) ?
A) 200 to 5000 nM

Q) And what about the molecule CC(c1ccc(F)cc1)n1ncc2c(S(N)(=O)=O)cc(NC(=O)Cc3ccccc3Cl)cc21 (centres unmarked) ?
A) ≤ 10 nM

Q) And what about the molecule C[S@@](=N)(=O)c1cc(NC(=O)Cc2ccccc2Cl)cc2nn(Cc3ccc(F)cc3)cc12 [Compound 138A] ?
A) 200 to 5000 nM

Q) And what about the molecule NS(=O)(=O)c1cc(NC(=O)Cc2ccccc2Cl)cc2c1CN(C(=O)c1ccc(F)cc1)C2 ?
A) 10 to 50 nM

Q) And what about the molecule NS(=O)(=O)c1cc(NC(=O)Cc2ccccc2Cl)cc2cnn(CCO)c12 ?
A) 200 to 5000 nM

Q) And what about the molecule CC1(N2Cc3cc(NC(=O)Cc4ccccc4Cl)cc(S(N)(=O)=O)c3C2)COC1 ?
A) 200 to 5000 nM

Q) And what about the molecule NS(=O)(=O)c1cc(NC(=O)Cc2ccccc2Cl)cc2nc(-c3ccc(Cl)cc3)[nH]c12 ?
A) 200 to 5000 nM

Q) And what about the molecule Cc1ccc(Cn2ncc3c(S(N)(=O)=O)cc(NC(=O)Cc4ccccc4Cl)cc32)cc1 [Compound 92A] ?
A) ≤ 10 nM

Q) And what about the molecule CC(C)C(F)(F)n1cc2c(S(N)(=O)=O)cc(NC(=O)Cc3ccccc3Cl)cc2n1 ?
A) 10 to 50 nM

Q) And what about the molecule C[S@](=N)(=O)c1cc(NC(=O)Cc2ccccc2Cl)cc2nn(Cc3ccc(F)cc3)cc12 ?
A) 200 to 5000 nM

Q) And what about the molecule NS(=O)(=O)c1cc(NC(=O)Cc2ccccc2Cl)cc2c1cnn2CC1CCC1 ?
A) ≤ 10 nM

Q) And what about the molecule Nc1ccc(Cn2ncc3c(S(N)(=O)=O)cc(NC(=O)Cc4ccccc4Cl)cc32)cn1 [Compound 101A] ?
A) 10 to 50 nM

Q) And what about the molecule NS(=O)(=O)c1cc(NC(=O)Cc2ccccc2Cl)cc2nn(C(=O)c3ccc(F)cc3)cc12 ?
A) 10 to 50 nM

Q) And what about the molecule CCn1cc2c(S(N)(=O)=O)cc(NC(=O)Cc3ccccc3Cl)cc2n1 ?
A) ≤ 10 nM

Q) And what about the molecule NS(=O)(=O)c1cc(NC(=O)Cc2ccccc2Cl)cc2c1cnn2C(=O)c1ccc(F)cc1 ?
A) 200 to 5000 nM

Q) And what about the molecule NS(=O)(=O)c1cc(NC(=O)Cc2ccccc2Cl)cc2nn(Cc3ccc(C(F)(F)F)cc3)cc12 ?
A) ≤ 10 nM

---

# Lookup of reported half-life keyed by entry
test: In vitro metabolic stability, liver microsome incubation (human); assay type: in vitro ADME; settings: human, liver microsomes; 1 mg/mL liver microsome protein, 37° C.; read-out: T1/2 in human liver microsome min
Quick note: give the figure in h, leave out the unit.

Look over these answered cases.
NS(=O)(=O)c1cc(NC(=O)Cc2ccccc2Cl)cc2nn(CC3CCC3)cc12 [Compound 24-A]: 1.08
NS(=O)(=O)c1cc(NC(=O)Cc2ccccc2Cl)cc2c1cnn2CC1CCC1 [Compound 24-B]: 1.84
NS(=O)(=O)c1cc(NC(=O)Cc2ccccc2Cl)cc2n[nH]cc12 [Compound 2]: 2.57

Read the next record carefully.
Q) Recorded half-life for C=CC(F)(F)n1cc2c(S(N)(=O)=O)cc(NC(=O)Cc3ccccc3Cl)cc2n1 [Compound 134] , please?
A) 13.7

---

assay: In vitro metabolic stability, liver microsome incubation (rat); type: in vitro ADME; conditions: rat, liver microsomes; 1 mg/mL liver microsome protein, 37° C.; read-out: T1/2 in rat liver microsome min
PROPERTY: half-life (min)
Quick note: give the figure in min, leave out the unit.

NS(=O)(=O)c1cc(NC(=O)Cc2ccccc2Cl)cc2n[nH]cc12: 48.5
N#Cc1ccc(Cn2cc3c(S(N)(=O)=O)cc(NC(=O)Cc4ccccc4Cl)cc3n2)cc1: 110
NS(=O)(=O)c1cc(NC(=O)Cc2ccccc2Cl)cc2nn(CC3CCOCC3)cc12: 13.6
NS(=O)(=O)c1cc(NC(=O)Cc2ccccc2Cl)cc2nc(-c3ccccc3)[nH]c12: 45.2

Read the next record carefully.
Q) Recorded half-life for NS(=O)(=O)c1cc(NC(=O)Cc2ccccc2Cl)cc2nn(Cc3ccc(F)cc3)cc12 , please?
A) 124

---

experiment: In vitro metabolic stability, liver microsome incubation (human); format: in vitro ADME; details: human, liver microsomes; 1 mg/mL liver microsome protein, 37° C.; read-out: T1/2 in human liver microsome min
PROPERTY: half-life (h)
Quick note: give the figure in h, leave out the unit.

Look over these answered cases.
Nc1ccc(Cn2cc3c(S(N)(=O)=O)cc(NC(=O)Cc4ccccc4Cl)cc3n2)cn1 [Compound 101]: 1.86
Cn1ncc2c(S(N)(=O)=O)cc(NC(=O)Cc3ccccc3Cl)cc21 [Compound 3-B]: 2.58
COc1ccccc1Cn1cc2c(S(N)(=O)=O)cc(NC(=O)Cc3ccccc3Cl)cc2n1 [Compound 37-A]: 1.32
CC(C)OCCn1cc2c(S(N)(=O)=O)cc(NC(=O)Cc3ccccc3Cl)cc2n1 [Compound 26-A]: 2.09
N#Cc1ccc(Cn2cc3c(S(N)(=O)=O)cc(NC(=O)Cc4ccccc4Cl)cc3n2)cc1 [Compound 91]: 3.23
NS(=O)(=O)c1cc(NC(=O)Cc2ccccc2Cl)cc2nn(CC3CCOC3)cc12 (centres unmarked) [Compound 110]: 7.18
NS(=O)(=O)c1cc(NC(=O)Cc2ccccc2Cl)cc2c1cnn2-c1ccc(F)cc1 [Compound 44]: 5.08

Q) Recorded half-life for NS(=O)(=O)c1cc(NC(=O)Cc2ccccc2Cl)cc2c1cnn2CC(F)F [Compound 12-B] , please?
A) 0.301

---

test: In vitro metabolic stability, liver microsome incubation (guinea pig); format: in vitro ADME; settings: guinea pig, liver microsomes; 1 mg/mL liver microsome protein, 37° C.; read-out: T1/2 in guinea pig liver microsome min
# Lookup of reported half-life keyed by entry
Quick note: give the figure in h, leave out the unit.

NS(=O)(=O)c1cc(NC(=O)Cc2ccccc2Cl)cc2nn(C(F)F)cc12: 2.58
NS(=O)(=O)c1cc(NC(=O)Cc2ccccc2Cl)cc2c1cnn2CC1CCC1: 2.41
CCCn1cc2c(S(N)(=O)=O)cc(NC(=O)Cc3ccccc3Cl)cc2n1: 0.0978
NS(=O)(=O)c1cc(NC(=O)Cc2ccccc2Cl)cc2nn(Cc3ccc(F)cc3)cc12: 2

Q) Recorded half-life for NS(=O)(=O)c1cc(NC(=O)Cc2ccccc2Cl)cc2c1cnn2-c1ccc(F)cc1 , please?
A) 1.2

Q) And what about the compound NS(=O)(=O)c1cc(NC(=O)Cc2ccccc2Cl)cc2n[nH]cc12 ?
A) 3.54

Q) And what about the compound N#Cc1ccc(Cn2cc3c(S(N)(=O)=O)cc(NC(=O)Cc4ccccc4Cl)cc3n2)cc1 ?
A) 0.809

Q) And what about the compound NS(=O)(=O)c1cc(NC(=O)Cc2ccccc2Cl)cc2nc(-c3ccccc3)[nH]c12 ?
A) 0.154
